# Tested on: VchCAST RNA-guided transposition machinery (E. coli BL21(DE3) host, lacZ target)
# Measurement Notes: relative integration efficiency (T-RL orientation) vs wild-type transposon end (log2 (normalized fold change)); transposon end mutated: right end (5 bp flank + 75 bp right end); higher = more efficient transposition
Please use Y whenever relative integration efficiency (log2) is not below -1, and N whenever it is.

Quick check: does ACATTTGTCGATACAACCATAAAATGATAATTACACCCATAAATGGATAATTATCACACCCAATTTAACTATAACGCTCTGATCATAGTCAGACCAACATTGCTACGACCCGTATTCGCACCGACAC have relative integration efficiency (log2) greater than or equal to -1?
N

Kindly determine if relative integration efficiency (log2) recorded for ACATTTGTTGATAAAACCATAAAATGATAATTAGACCCATAAATTGATAATTATCACACCCATAAATTGATATTGCCTCTGATCATAGTCAGACCAACATTGCTACGACCCGTATTCGCACCGACAC is above or exactly -1.
N

For this sequence, is measured relative integration efficiency (log2) -1 or higher? ACATTTGTTGATACAACCATAAAATGATAATTACACCCATAAATTGATAATTATCACACCCATAAATTGATATTGCCTCTGATCATAGTCAACTGTATATAAATACAGTTCAGACCAGCACCGACAC
Y

hey, is relative integration efficiency (log2) for this one >= -1? ACATTTGTTGATACAACCATAAAATCATCATTACACCCATAAATTGATAATTATCACACCCAATTTAACTATAACGCTCTGATCATAGTCAGACCAACATTGCTACGACCCGTATTCGCACCGACAC
N

Given the entry ACATTTGTTGATACAACCATAAAATGATAATTACACCCATAAATTGATAATTATCACACCCATAAATTGATATTGAAGAGGATCATAGTCAGACCAACATTGCTACGACCCGTATTCGCACCGACAC , answer whether its relative integration efficiency (log2) meets or surpasses -1.
Y

Say whether ACATTTGTTGATACAACCATAAAATGATAATTACACCCATAAATTGATAATTATCACACCCATAAATTGATATTGCCTCTTTGTGAGCGGATAACAAGATCATAGTCAGACCAACATGCACCGACAC shows relative integration efficiency (log2) of -1 or more.
Y

Is relative integration efficiency (log2) for ACATTTGTTGATACAACCATAAAATGATAATTACACCCATAAATTGATAATTATCACCACCATAAATTGATATTGCCTCTGATCATAGTCAGACCAACATTGCTACGACCCGTATTCGCACCGACAC at or above -1?
Y

# check: relative integration efficiency (log2) of ACATTTGTTGATAAAACCATACGTTGATTTTAAGAAACCATACGCTGAAATAATCACACCCATAAATTGATATTGCCTCTGATCATAGTCAGACCAACATTGCTACGACCCGTATTCGCACCGACAC is greater than or equal to -1
N

Could you verify whether the entry ACATTTGTTGATACAACCATAAAATGATAATATCACCCATAAATTGATAATTATCACACCCATAAATTGATATTGCCTCTGATCATAGTCAGACCAACATTGCTACGACCCGTATTCGCACCGACAC shows relative integration efficiency (log2) of no less than -1?
Y

Form field: relative integration efficiency (log2) at least -1? Entry: ACATTTGTTGATACAACCATAAAATGATAATTACAACCATATATTGATATCTCTCACAACCATAAGTTGATATTTTCTCTGATCATAGTCAGACCAACATTGCTACGACCCGTATTCGCACCGACAC
Y

Decide: is the reported value of relative integration efficiency (log2) for ACATTTGTTGATACAACCATAAAATGATAATTACACCCATAAATTGATAATTATCACACCCATAAATTGATATTCGGACTGATCATAGTCAGACCAACATTGCTACGACCCGTATTCGCACCGACAC equal to or greater than -1?
Y

Reported relative integration efficiency (log2) reaches at least -1 for ACATTTGTTGATACACCCATAAATTGATATTGCCAACCATAAAGTGATATTTATCACAACCATAAAGTGATATTTACTCTGATCATAGTCAGACCAACATTGCTACGACCCGTATTCGCACCGACAC ?
Y

API: above_or_equal(metric=relative integration efficiency (log2), cutoff=-1) for item ACATTTGTGGATACAACCCTAAAATGATAATTACACCCATAAATGGATCATTATCACCCCCAATTTAACTATAACGCTCTGATCATAGTCAGACCAACATTGCTACGACCCGTATTCGCACCGACAC
N

Check this sequence for relative integration efficiency (log2) at or above -1: ACATTTGTTGATACAACCATTAAATGGTAATTACACCCATAAATTGATAATTATCACACCCAATTTAACTATAACGCTCTGATCATAGTCAGACCAACATTGCTACGACCCGTATTCGCACCGACAC
N

Threshold query (relative integration efficiency (log2) >= -1) on ACATTTGTTGATACAACCCTAAAATGATAATTACACCCATAAATTCATCATTATCACCCCCAATTTAACTATAACGCTCTGATCATAGTCAGACCAACATTGCTACGACCCGTATTCGCACCGACAC
N

Decide: relative integration efficiency (log2) of ACATTTGTTGATACAACCATCAAATGATAATTACACCCCTAAATTGATAATTATCACACCCAATTTAACTATAACGCTCTGATCATAGTCAGACCAACATTGCTACGACCCGTATTCGCACCGACAC >= -1?
N

Item ACATTTGTTGATACAACCATAAAATGATAATTACACCCATAAATTGAATATTATCACACCCATAAATTGATATTGCCTCTGATCATAGTCAGACCAACATTGCTACGACCCGTATTCGCACCGACAC with relative integration efficiency (log2) of -1 or above?
N

Hi, just wondering whether ACATTTGTTGATACAACCATAAAATGATAATTACACCCATAAATTGATATTGCTCACAACCATAAAGTGATATTTACTCTGATCATAGTCAGACCAACATTGCTACGACCCGTATTCGCACCGACAC shows relative integration efficiency (log2) of -1 or higher.
Y

Check if relative integration efficiency (log2) >= -1 (inclusive). Item: ACATTTGTTGATACAACCATAAAATGATAATTACACCCATAAATTGATATAATTCACACCCATAAATTGATATTGCCTCTGATCATAGTCAGACCAACATTGCTACGACCCGTATTCGCACCGACAC
Y

Reported relative integration efficiency (log2) reaches at least -1 for ACATTTGTTGATACAACCATAAAATGATAATTACAACCATAAAATGATAATTATCACAACCATATATTGATATCTCCTCTGATCATAGTCAGACCAACATTGCTACGACCCGTATTCGCACCGACAC ?
Y

====

# Tested on: VchCAST RNA-guided transposition machinery (E. coli BL21(DE3) host, lacZ target)
# Measurement Notes: relative integration efficiency (T-RL orientation) vs wild-type transposon end (log2 (normalized fold change)); transposon end mutated: right end (5 bp flank + 75 bp right end); higher = more efficient transposition
For each entry below, report its relative integration efficiency (log2) value.
Reply briefly: the number, and no unit.

Returns the measured relative integration efficiency (log2) for the input sequence. Input: ACATTTGTTGATACAACCATAAAATGATAATTACACCCATAAATTGATAATTATCACACCCATAAATTGCGCGGTAAGAGGATCATAGTCAGACCAACATTGCTACGACCCGTATTCGCACCGACAC
-0.4

Suppose we examine the sequence ACATTTGTTGATACAACCATAAAATGATAATTACACCCATAAATTGATAATTATCACACCCATAAATTGATATTGCCTCTAAAGTGTACAACACTTGAGAAAGTTTACTACAGGTATGCACCGACAC ; what relative integration efficiency (log2) value has been reported?
-0.293

I'd like to know its relative integration efficiency (log2). The sequence in question is ACATTTGTTGATACAACCATAAAATGATAATTACACCCATAAATTGATATTGCTCACAACCATATATTGATATCTCCTCTGATCATAGTCAGACCAACATTGCTACGACCCGTATTCGCACCGACAC
-0.74

relative integration efficiency (log2) lookup needed for ACATTTGTTCATACAACCCTAAAATGATAATTACACCCATAAATGGATAATTATCACCCCCAATTTAACTATAACGCTCTGATCATAGTCAGACCAACATTGCTACGACCCGTATTCGCACCGACAC , thanks.
-3.89

Report relative integration efficiency (log2) for ACATTTCTTGATACAACCATAAAATGATAATTACACCCATAAATTCATCATTATCACACCCAATTTAACTATAACGCTCTGATCATAGTCAGACCAACATTGCTACGACCCGTATTCGCACCGACAC please.
-2.84

For ACATTTGTTGATACAACCAGAAAATGATAATTACACCCAGAAATTGATAATTATCACACCCAGAAATTGATATTGCCTCTGATCATAGTCAGACCAACATTGCTACGACCCGTATTCGCACCGACAC , what is its reported relative integration efficiency (log2)?
-5.08

Field request: relative integration efficiency (log2) | item: ACATTTGTTGATACAACCATAAAATGATAATTACACCCATAAATTGATAATTATCACACCCATAAATTGATATTGCCTCTGATAACTTCGTATAGGATACTTTATACGAAGTTATTCGCACCGACAC
-0.663

Param item = ACATTTGTTGATACAACCATATATTGATATCTCCACCCATAAATTGATAATTATCACAACCATAAAGTGATATTTACTCTGATCATAGTCAGACCAACATTGCTACGACCCGTATTCGCACCGACAC ; retrieve measured relative integration efficiency (log2).
-0.345

What value of relative integration efficiency (log2) has been reported for the following sequence? ACATTTGTTGATAACCACATAAAATGATAATTACACCCATAAATTGATAATTATCACACCCATAAATTGATATTGCCTCTGATCATAGTCAGACCAACATTGCTACGACCCGTATTCGCACCGACAC
-0.808

Requested read-out: relative integration efficiency (log2). Entry: ACATTTGTTGATACAACCATAAAATGATAATTAGTGGGTATTTAACTATTAATTCAGTGGGTATTTAACTATAACGCTCTGATCATAGTCAGACCAACATTGCTACGACCCGTATTCGCACCGACAC
-2.37

Return reported relative integration efficiency (log2); argument: ACATTTGTTGATACAACCATAAAATGATAATTACAACCATATATTGATATCTCTCAGTGGGTATTTAACTATAACGCTCTGATCATAGTCAGACCAACATTGCTACGACCCGTATTCGCACCGACAC
-0.933

Which relative integration efficiency (log2) is listed for ACATTTGTCGATACAACCCTAAAATGATAATTACACCCATAAATGGATAATTATCACCCCCAATTTAACTATAACGCTCTGATCATAGTCAGACCAACATTGCTACGACCCGTATTCGCACCGACAC ?
-3.44

Name the recorded relative integration efficiency (log2) for ACATTGGTTGATACAACCATAAAATGATAATTACACCCATAAATGGATCATTATCACACCCAATTTAACTATAACGCTCTGATCATAGTCAGACCAACATTGCTACGACCCGTATTCGCACCGACAC .
-7.55

Record request: relative integration efficiency (log2) value, item ACATTTGTTGATACAACCATAAAATGATAATTACACCCATAAATTGATAATTATCACACCCATAAATTGATATTGCCTCTGCAACCATAAAATGATAATTAATCATAGTCAGACCAAGCACCGACAC
-0.336

I am curious: what relative integration efficiency (log2) value has been reported for ACATTTGTTGATACAAGCATAAAATGATAATTACACGCATAAATTGATAATTATCACACGCATAAATTGATATTGCCTCTGATCATAGTCAGACCAACATTGCTACGACCCGTATTCGCACCGACAC ?
-0.391

I am curious: what relative integration efficiency (log2) value has been reported for ACATTTGTTGATACAACCATAAAATGATCATTACCCCCATAAATTGATAATTATCACACCCCATTTAACTATAACGCTCTGATCATAGTCAGACCAACATTGCTACGACCCGTATTCGCACCGACAC ?
-1.23

Given the entry ACATGGTGTGATACAACCATAAAATGATAATTACACCCATAAATTGATAATTATCACACCCATAAATTGATATTGCCTCTGATCATAGTCAGACCAACATTGCTACGACCCGTATTCGCACCGACAC , report its measured relative integration efficiency (log2).
-6.87

Query: relative integration efficiency (log2); subject: ACATTTGTTGATACAACCATAAAATCATCATTACACCCATCAATTGATAATTATCACACCCAATTTAACTATAACGCTCTGATCATAGTCAGACCAACATTGCTACGACCCGTATTCGCACCGACAC
-4.74

If you can, please state the reported relative integration efficiency (log2) value of ACATTTGTTGATACAACCATAAAATGATAATTACACCCATAAATTGATAATTATCACACCCATAAATTGATATGTAAGAGGATCATAGTCAGACCAACATTGCTACGACCCGTATTCGCACCGACAC .
-0.111

// lookup relative integration efficiency (log2) for ACATTTGTTGATACAACCATAAAATGGTAATTACACCCCTACATTGATAATTATCACACCCAATTTAACTATAACGCTCTGATCATAGTCAGACCAACATTGCTACGACCCGTATTCGCACCGACAC
-3.67
